targetEntity: JAK2 (Homo sapiens)
assayRemarks: biochemical
Set-up: Eurofins Cerep biochemical enzymatic kinase assay, per cent inhibition at a single concentration, duplicate
observationType: inhibition at 10 µM (%)

CCS(=O)(=O)N1CCC2(C)C(Nc3ncnc4[nH]ccc34)CCC12 (stereo not shown) [36d] : 51
CC12CCN(C(=O)CC#N)C1CCC2Nc1ncnc2[nH]ccc12 (stereo not shown) [36a] : 60

1: CC12CCN(C#N)C1CCC2Nc1ncnc2[nH]ccc12 (stereo not shown) [36c]
2: C=CC(=O)N1CCC2(C)C(Nc3ncnc4[nH]ccc34)CCC12 (stereo not shown) [36b]
Compare inhibition at 10 µM: is it lower for 1 or for 2 ? # respond with the chosen item's label 2
(2: 47%, 1: 80%)

---

targetEntity: JAK2 (Homo sapiens, UniProt O60674)
Sequence (O60674 whole entry): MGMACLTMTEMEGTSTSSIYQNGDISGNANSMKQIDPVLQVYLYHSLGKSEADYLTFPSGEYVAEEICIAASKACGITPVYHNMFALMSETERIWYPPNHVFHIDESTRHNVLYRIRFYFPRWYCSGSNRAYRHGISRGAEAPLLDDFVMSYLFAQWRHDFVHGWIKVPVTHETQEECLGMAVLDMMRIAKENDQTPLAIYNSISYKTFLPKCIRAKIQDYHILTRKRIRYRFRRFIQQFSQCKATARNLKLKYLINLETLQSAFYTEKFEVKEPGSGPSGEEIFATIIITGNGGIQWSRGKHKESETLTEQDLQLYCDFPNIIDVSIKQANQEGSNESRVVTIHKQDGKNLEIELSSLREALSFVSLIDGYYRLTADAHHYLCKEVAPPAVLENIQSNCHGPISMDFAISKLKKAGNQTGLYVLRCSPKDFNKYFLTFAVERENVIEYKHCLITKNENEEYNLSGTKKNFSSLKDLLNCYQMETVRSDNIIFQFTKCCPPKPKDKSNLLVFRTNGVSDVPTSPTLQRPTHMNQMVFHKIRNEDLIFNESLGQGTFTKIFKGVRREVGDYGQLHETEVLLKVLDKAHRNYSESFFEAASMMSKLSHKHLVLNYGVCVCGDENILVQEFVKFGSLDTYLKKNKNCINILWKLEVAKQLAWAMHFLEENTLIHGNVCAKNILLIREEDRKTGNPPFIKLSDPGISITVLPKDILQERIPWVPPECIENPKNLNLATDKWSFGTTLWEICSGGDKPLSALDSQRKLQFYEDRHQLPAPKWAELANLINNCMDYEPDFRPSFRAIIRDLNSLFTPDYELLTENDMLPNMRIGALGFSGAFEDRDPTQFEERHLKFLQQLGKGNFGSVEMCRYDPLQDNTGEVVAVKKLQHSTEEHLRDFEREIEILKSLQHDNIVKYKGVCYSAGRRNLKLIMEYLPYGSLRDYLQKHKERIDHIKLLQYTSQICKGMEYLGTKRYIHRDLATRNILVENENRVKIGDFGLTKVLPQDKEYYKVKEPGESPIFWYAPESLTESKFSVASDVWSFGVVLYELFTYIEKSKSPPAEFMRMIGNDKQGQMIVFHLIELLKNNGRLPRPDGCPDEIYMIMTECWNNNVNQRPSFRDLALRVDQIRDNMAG
assayRemarks: biochemical
Design: Eurofins Cerep biochemical enzymatic kinase assay, per cent inhibition at a single concentration, duplicate
observationType: inhibition at 0.1 µM (%)

C=CC(=O)N[C@H]1CC[C@@H]2N(c3ncnc4[nH]ccc34)CC[C@]12C (racemic) [40b] : 8

P: CCS(=O)(=O)NC1CCC2N(c3ncnc4[nH]ccc34)CCC12C (stereo not shown) [40d]
Q: CC12CCN(c3ncnc4[nH]ccc34)C1CCC2NC(=O)CC#N (stereo not shown) [40a]
R: C[C@]12CCN(c3ncnc4[nH]ccc34)[C@H]1CC[C@@H]2NC#N (racemic) [40c]
Arrange the 3 entries by inhibition at 0.1 µM so the values rise. Respond with an ordered listing of the labels, as requested. P, Q, R
(P: 1%, Q: 3%, R: 18%)

---

targetEntity: JAK1 (Homo sapiens)
Sequence (P23458 whole entry): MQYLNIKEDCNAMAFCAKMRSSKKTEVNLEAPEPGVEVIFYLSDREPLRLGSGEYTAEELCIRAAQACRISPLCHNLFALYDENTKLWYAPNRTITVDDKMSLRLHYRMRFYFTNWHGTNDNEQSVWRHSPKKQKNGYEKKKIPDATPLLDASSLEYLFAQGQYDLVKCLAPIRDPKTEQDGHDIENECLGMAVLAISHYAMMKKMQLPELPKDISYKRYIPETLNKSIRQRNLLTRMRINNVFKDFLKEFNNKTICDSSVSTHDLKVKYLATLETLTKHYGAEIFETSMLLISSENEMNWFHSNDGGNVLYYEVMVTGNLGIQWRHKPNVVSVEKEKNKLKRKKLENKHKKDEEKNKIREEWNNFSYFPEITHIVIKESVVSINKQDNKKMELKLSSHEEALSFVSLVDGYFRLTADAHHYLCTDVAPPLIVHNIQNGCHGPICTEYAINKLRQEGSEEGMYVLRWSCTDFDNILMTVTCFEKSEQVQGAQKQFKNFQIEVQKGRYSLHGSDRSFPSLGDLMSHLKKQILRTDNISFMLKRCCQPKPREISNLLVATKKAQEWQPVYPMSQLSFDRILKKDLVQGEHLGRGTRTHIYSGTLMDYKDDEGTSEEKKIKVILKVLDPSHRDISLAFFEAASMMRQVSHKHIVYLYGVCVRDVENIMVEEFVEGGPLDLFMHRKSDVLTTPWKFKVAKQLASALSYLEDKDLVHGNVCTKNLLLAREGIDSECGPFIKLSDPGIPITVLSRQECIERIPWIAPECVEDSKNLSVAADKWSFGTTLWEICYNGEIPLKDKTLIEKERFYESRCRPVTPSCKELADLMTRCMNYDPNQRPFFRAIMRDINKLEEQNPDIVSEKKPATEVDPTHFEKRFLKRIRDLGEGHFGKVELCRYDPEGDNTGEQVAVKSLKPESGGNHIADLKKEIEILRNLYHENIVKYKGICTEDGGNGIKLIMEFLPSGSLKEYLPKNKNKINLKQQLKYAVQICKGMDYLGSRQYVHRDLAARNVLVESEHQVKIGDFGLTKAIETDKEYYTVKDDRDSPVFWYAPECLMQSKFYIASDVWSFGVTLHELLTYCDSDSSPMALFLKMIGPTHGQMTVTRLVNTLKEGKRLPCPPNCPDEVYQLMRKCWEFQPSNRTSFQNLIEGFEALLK
assayRemarks: biochemical
Set-up: Eurofins Cerep biochemical enzymatic kinase assay, per cent inhibition at a single concentration, duplicate
observationType: inhibition at 10 µM (%)

CC12CCN(C#N)C1CCC2Nc1ncnc2[nH]ccc12 (stereo not shown) [36c] : 92
CC12CCN(C(=O)CC#N)C1CCC2Nc1ncnc2[nH]ccc12 (stereo not shown) [36a] : 94
CCS(=O)(=O)N1CCC2(C)C(Nc3ncnc4[nH]ccc34)CCC12 (stereo not shown) [36d] : 86
C=CC(=O)N1CCC2(C)C(Nc3ncnc4[nH]ccc34)CCC12 (stereo not shown) [36b] : 84

---

targetEntity: TYK2 (Homo sapiens, UniProt P29597)
Sequence (P29597 whole entry): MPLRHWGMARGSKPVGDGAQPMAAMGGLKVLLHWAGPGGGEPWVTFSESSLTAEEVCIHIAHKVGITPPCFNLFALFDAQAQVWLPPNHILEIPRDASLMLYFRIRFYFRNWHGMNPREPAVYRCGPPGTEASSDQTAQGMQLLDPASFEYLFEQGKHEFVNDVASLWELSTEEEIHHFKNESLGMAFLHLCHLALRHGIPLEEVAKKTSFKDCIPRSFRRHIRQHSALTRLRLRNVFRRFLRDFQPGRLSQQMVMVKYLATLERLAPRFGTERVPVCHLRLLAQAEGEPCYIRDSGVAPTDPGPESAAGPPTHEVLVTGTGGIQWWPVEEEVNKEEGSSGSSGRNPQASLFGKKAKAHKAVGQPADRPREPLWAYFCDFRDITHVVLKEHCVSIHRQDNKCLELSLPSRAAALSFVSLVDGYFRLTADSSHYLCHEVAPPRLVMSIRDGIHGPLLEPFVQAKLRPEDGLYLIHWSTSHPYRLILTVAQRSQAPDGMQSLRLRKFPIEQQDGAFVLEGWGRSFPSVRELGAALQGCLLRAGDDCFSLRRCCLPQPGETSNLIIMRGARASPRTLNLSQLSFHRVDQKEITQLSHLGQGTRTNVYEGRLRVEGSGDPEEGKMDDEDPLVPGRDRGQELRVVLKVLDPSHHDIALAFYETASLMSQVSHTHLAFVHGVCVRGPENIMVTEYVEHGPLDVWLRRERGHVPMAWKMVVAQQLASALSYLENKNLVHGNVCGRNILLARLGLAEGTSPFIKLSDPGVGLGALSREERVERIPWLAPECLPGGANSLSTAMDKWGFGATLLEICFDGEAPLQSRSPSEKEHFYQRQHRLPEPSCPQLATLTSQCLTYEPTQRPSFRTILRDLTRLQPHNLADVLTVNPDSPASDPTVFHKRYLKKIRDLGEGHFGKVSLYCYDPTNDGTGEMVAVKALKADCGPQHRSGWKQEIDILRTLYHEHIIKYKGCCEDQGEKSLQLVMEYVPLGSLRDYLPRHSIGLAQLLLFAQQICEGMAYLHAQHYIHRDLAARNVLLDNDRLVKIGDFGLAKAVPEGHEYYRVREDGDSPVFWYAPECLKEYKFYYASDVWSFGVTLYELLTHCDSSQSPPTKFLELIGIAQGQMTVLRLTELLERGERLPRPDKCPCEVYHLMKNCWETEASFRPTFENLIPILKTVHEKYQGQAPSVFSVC
assayRemarks: biochemical
Design: radiometric filter-binding kinase inhibition assay (Eurofins Cerep), scintillation counting
measurementParameters: 10 uM
observationType: inhibition at 10 µM (%)

CCS(=O)(=O)N1CCC2(C)C(Nc3ncnc4[nH]ccc34)CCC12 (stereo not shown) [36d] : 97
CC12CCN(c3ncnc4[nH]ccc34)C1CCC2NC(=O)CC#N (stereo not shown) [40a] : 95
C=CC(=O)N[C@H]1CC[C@@H]2N(c3ncnc4[nH]ccc34)CC[C@]12C (racemic) [40b] : 100
C[C@]12CCN(c3ncnc4[nH]ccc34)[C@H]1CC[C@@H]2NC#N (racemic) [40c] : 91

---

targetEntity: JAK2 (Homo sapiens)
assayRemarks: biochemical
Parameters: radiometric filter-binding kinase inhibition assay (Eurofins Cerep), scintillation counting
measurementParameters: 1 uM
observationType: inhibition at 1 µM (%)

Reference set (2 entries):
C=CC(=O)N[C@H]1CC[C@@H]2N(c3ncnc4[nH]ccc34)CC[C@]12C (racemic) [40b] : 52
C[C@]12CCN(c3ncnc4[nH]ccc34)[C@H]1CC[C@@H]2NC#N (racemic) [40c] : 58

1: CCS(=O)(=O)NC1CCC2N(c3ncnc4[nH]ccc34)CCC12C (centres unmarked) [40d]
2: CC12CCN(c3ncnc4[nH]ccc34)C1CCC2NC(=O)CC#N (centres unmarked) [40a]
3: CCS(=O)(=O)N1CCC2(C)C(Nc3ncnc4[nH]ccc34)CCC12 (centres unmarked) [36d]
Reorder: inhibition at 1 µM, max to min. Return value: ordered labels per request. 2, 1, 3
